Origin of measurements: patent US10709697B2

biological target: CXCR4 (Homo sapiens, UniProt P61073); construct: endogenous in cells; host or cells: MDA-MB-231; test: Primary binding affinity screening (competition with biotinylated TN14003); details: Table 3
Sequence (P61073 whole entry): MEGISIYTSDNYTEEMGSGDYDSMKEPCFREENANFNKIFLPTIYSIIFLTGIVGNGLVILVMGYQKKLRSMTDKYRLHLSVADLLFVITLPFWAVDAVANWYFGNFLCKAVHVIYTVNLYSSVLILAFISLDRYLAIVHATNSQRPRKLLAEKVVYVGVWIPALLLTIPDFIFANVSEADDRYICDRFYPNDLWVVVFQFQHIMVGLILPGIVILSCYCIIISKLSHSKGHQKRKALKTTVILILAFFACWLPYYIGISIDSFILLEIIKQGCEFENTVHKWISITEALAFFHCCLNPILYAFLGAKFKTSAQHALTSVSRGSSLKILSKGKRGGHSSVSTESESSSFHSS
Please go through the items and note down their EC.
State the answer as a number, implicitly in nM.

The recorded EC for c1ccc(NCc2ccc(CNc3ccccn3)cc2)nc1 [WZ811, reference compound] is 10

# EC of COc1cccc(NCc2cccc(CNc3cccc(OC)c3)n2)c1 [2,6-Bis(3-methoxyanilinomethyl)pyridine] = 100

Value of EC reported for the compound c1cc(CN2CCOCC2)nc(CN2CCOCC2)c1 [2,6-Bis(morpholinylmethyl)pyridine] is 10

// field: EC; key: FC(F)(F)c1ccc(NCc2cccc(CNc3ccc(C(F)(F)F)cc3)n2)cc1 ; value = 1

Looking up CCc1ccccc1NCc1cccc(CNc2ccccc2CC)n1 [2,6-Bis(2-ethylanilinomethyl)pyridine] , I see its EC listed as 1

The recorded EC for entry CCc1ccc(NCc2cccc(CNc3ccc(CC)cc3)n2)cc1 [2,6-Bis(4-ethylanilinomethyl)pyridine] equals 1

Form field EC, entry Fc1cccc(NCc2cccc(CNc3cccc(F)c3)n2)c1 [2,6-Bis(3-fluoroanilinomethyl)pyridine] : 10

EC for c1cc(CN2CCCNCCNCCCNCC2)ccc1CN1CCCNCCNCCCNCC1 [AMD3100, reference compound] is 1000

The compound identified as Cc1cccc(NCc2ccc(CNc3cccc(C)c3)nc2)c1 registered its EC at 1
